Biological target: Cholecystokinin receptor type A (Cavia porcellus) (UniProt Q63931)
Sequence (whole entry): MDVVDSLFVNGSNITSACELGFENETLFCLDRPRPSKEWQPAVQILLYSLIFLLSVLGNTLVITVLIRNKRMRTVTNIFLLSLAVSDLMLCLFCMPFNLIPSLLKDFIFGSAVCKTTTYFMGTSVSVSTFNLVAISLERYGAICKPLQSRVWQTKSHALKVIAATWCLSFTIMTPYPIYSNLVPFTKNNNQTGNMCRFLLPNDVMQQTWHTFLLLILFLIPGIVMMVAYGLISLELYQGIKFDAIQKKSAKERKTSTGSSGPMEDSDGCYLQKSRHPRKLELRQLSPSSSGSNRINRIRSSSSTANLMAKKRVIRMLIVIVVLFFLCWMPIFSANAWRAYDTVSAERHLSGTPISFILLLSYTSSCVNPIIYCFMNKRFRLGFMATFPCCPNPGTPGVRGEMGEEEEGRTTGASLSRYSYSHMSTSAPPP
Test: Percent response in PI hydrolysis relative to maximal response elicited by CCK-8 in guinea pig at 10e-6 M
Starred links: 1 amine or outer side, 2 acyl side, 3 side chain; linkers in the order of their positions; H or OH if unused. Non-standard residues stand in square brackets, D forms with d. Residues, ends and D or L forms follow the SMILES beside them. Groups on a side chain read outwards from the residue. ξ: configuration not given here. *: point of attachment. ξW = NC(Cc1c[nH]c2ccccc12)C(=O)O; NH(2-Me-phenyl) = Cc1ccccc1N*; ξNMeF = CNC(Cc1ccccc1)C(=O)O; Boc = CC(C)(C)OC(=O)*; CO = O=C([*:1])[*:2]; Sar = CNCC(=O)O
# reported PI hydrolysis; entries follow
State the answer as a number, implicitly in %.

Use these answered entries as a reference point.
[[record]]
compound = "Cc1ccccc1NC(=O)NCCCC[C@H](NC(=O)C(Cc1c[nH]c2ccccc12)NC(=O)OC(C)(C)C)C(=O)N(C)CC(=O)N(C)C(Cc1ccccc1)C(N)=O (stereo partly specified) (Boc-[ξW]K([CO-NH(2-Me-phenyl)])[Sar][ξNMeF]-NH2)"
reading = 33

[[record]]
compound = "Cc1ccccc1NC(=O)NCCCC[C@H](NC(=O)C(Cc1c[nH]c2ccccc12)NC(=O)OC(C)(C)C)C(=O)NCCCCC(=O)N(C)C(Cc1ccccc1)C(N)=O (stereo partly specified)"
reading = 7

[[record]]
compound = "Cc1ccccc1NC(=O)NCCCC[C@H](NC(=O)C(Cc1c[nH]c2ccccc12)NC(=O)OC(C)(C)C)C(=O)NCCCCCC(=O)N(C)C(Cc1ccccc1)C(N)=O (stereo partly specified)"
reading = 4

[[record]]
compound = "Cc1ccccc1NC(=O)NCCCC[C@H](NC(=O)C(Cc1c[nH]c2ccccc12)NC(=O)OC(C)(C)C)C(=O)NCCC(=O)NC(Cc1ccccc1)C(N)=O (stereo partly specified)"
reading = 16

[[record]]
compound = "Cc1ccccc1NC(=O)NCCCC[C@H](NC(=O)C(Cc1c[nH]c2ccccc12)NC(=O)OC(C)(C)C)C(=O)N1CCC(=O)N(C(Cc2ccccc2)C(N)=O)CC1 (stereo partly specified)"
reading = 1


Now examine the next entry.
Entry under test: Cc1ccccc1NC(=O)NCCCC[C@H](NC(=O)C(Cc1c[nH]c2ccccc12)NC(=O)OC(C)(C)C)C(=O)NCCCCC(=O)NC(Cc1ccccc1)C(N)=O (stereo partly specified) . Its PI hydrolysis was 2

====

biological target: Cholecystokinin receptor type A (Cavia porcellus) (UniProt Q63931); experiment: Percent response in PI hydrolysis relative to maximal response elicited by CCK-8 in guinea pig at 10e-6 M
Starred links: 1 amine or outer side, 2 acyl side, 3 side chain; linkers in the order of their positions; H or OH if unused. Non-standard residues stand in square brackets, D forms with d. Residues, ends and D or L forms follow the SMILES beside them. Groups on a side chain read outwards from the residue. ξ: configuration not given here. *: point of attachment. ξW = NC(Cc1c[nH]c2ccccc12)C(=O)O; NH(2-Me-phenyl) = Cc1ccccc1N*; ξNMeF = CNC(Cc1ccccc1)C(=O)O; β3hP = O=C(O)C[C@@H]1CCCN1; ξF = NC(Cc1ccccc1)C(=O)O; Boc = CC(C)(C)OC(=O)*; CO = O=C([*:1])[*:2]; Sar = CNCC(=O)O
# reported PI hydrolysis; entries follow
State the answer as a number, implicitly in %.

Use these answered entries as a reference point.
[[record]]
compound = "Cc1ccccc1NC(=O)NCCCC[C@H](NC(=O)C(Cc1c[nH]c2ccccc12)NC(=O)OC(C)(C)C)C(=O)NCCCCCC(=O)NC(Cc1ccccc1)C(N)=O (stereo partly specified)"
tested_on = "Cholecystokinin receptor type A (Cavia porcellus) (UniProt Q63931)"
reading = 5

[[record]]
compound = "Cc1ccccc1NC(=O)NCCCC[C@H](NC(=O)C(Cc1c[nH]c2ccccc12)NC(=O)OC(C)(C)C)C(=O)N(C)CCCC(=O)N(C)C(Cc1ccccc1)C(N)=O (stereo partly specified)"
tested_on = "Cholecystokinin receptor type A (Cavia porcellus) (UniProt Q63931)"
reading = 64

[[record]]
compound = "Cc1ccccc1NC(=O)NCCCC[C@H](NC(=O)C(Cc1c[nH]c2ccccc12)NC(=O)OC(C)(C)C)C(=O)N(C)CCCC(=O)NC(Cc1ccccc1)C(N)=O (stereo partly specified)"
tested_on = "Cholecystokinin receptor type A (Cavia porcellus) (UniProt Q63931)"
reading = 8

[[record]]
compound = "Cc1ccccc1NC(=O)NCCCC[C@H](NC(=O)C(Cc1c[nH]c2ccccc12)NC(=O)OC(C)(C)C)C(=O)N1CCC[C@H]1CC(=O)N(C)C(Cc1ccccc1)C(N)=O (stereo partly drawn) (Boc-[ξW]K([CO-NH(2-Me-phenyl)])[β3hP][ξNMeF]-NH2)"
tested_on = "Cholecystokinin receptor type A (Cavia porcellus) (UniProt Q63931)"
reading = 92

[[record]]
compound = "Cc1ccccc1NC(=O)NCCCC[C@H](NC(=O)C(Cc1c[nH]c2ccccc12)NC(=O)OC(C)(C)C)C(=O)NCCC(=O)N(C)C(Cc1ccccc1)C(N)=O (stereo partly specified)"
tested_on = "Cholecystokinin receptor type A (Cavia porcellus) (UniProt Q63931)"
reading = 47

[[record]]
compound = "Cc1ccccc1NC(=O)NCCCC[C@H](NC(=O)C(Cc1c[nH]c2ccccc12)NC(=O)OC(C)(C)C)C(=O)N[C@@H]1CC(=O)N([C@@H](Cc2ccccc2)C(N)=O)C1 (stereo partly specified)"
tested_on = "Cholecystokinin receptor type A (Cavia porcellus) (UniProt Q63931)"
reading = 89

[[record]]
compound = "Cc1ccccc1NC(=O)NCCCC[C@H](NC(=O)C(Cc1c[nH]c2ccccc12)NC(=O)OC(C)(C)C)C(=O)N(C)CCC(=O)N(C)C(Cc1ccccc1)C(N)=O (stereo partly specified)"
tested_on = "Cholecystokinin receptor type A (Cavia porcellus) (UniProt Q63931)"
reading = 36

[[record]]
compound = "Cc1ccccc1NC(=O)NCCCC[C@H](NC(=O)C(Cc1c[nH]c2ccccc12)NC(=O)OC(C)(C)C)C(=O)N(C)CCC(=O)NC(Cc1ccccc1)C(N)=O (stereo partly specified)"
tested_on = "Cholecystokinin receptor type A (Cavia porcellus) (UniProt Q63931)"
reading = 61

[[record]]
compound = "Cc1ccccc1NC(=O)NCCCC[C@H](NC(=O)C(Cc1c[nH]c2ccccc12)NC(=O)OC(C)(C)C)C(=O)NCCCC(=O)NC(Cc1ccccc1)C(N)=O (stereo partly specified)"
tested_on = "Cholecystokinin receptor type A (Cavia porcellus) (UniProt Q63931)"
reading = 9

[[record]]
compound = "Cc1ccccc1NC(=O)NCCCC[C@H](NC(=O)C(Cc1c[nH]c2ccccc12)NC(=O)OC(C)(C)C)C(=O)N(C)CC(=O)NC(Cc1ccccc1)C(N)=O (stereo partly specified) (Boc-[ξW]K([CO-NH(2-Me-phenyl)])[Sar][ξF]-NH2)"
tested_on = "Cholecystokinin receptor type A (Cavia porcellus) (UniProt Q63931)"
reading = 24


Now examine the next entry.
Entry under test: Cc1ccccc1NC(=O)NCCCC[C@H](NC(=O)C(Cc1c[nH]c2ccccc12)NC(=O)OC(C)(C)C)C(=O)NCC(=O)NC(Cc1ccccc1)C(N)=O (stereo partly specified) (Boc-[ξW]K([CO-NH(2-Me-phenyl)])G[ξF]-NH2) . Its PI hydrolysis was 17

====

# reported PI hydrolysis; entries follow
biological target: Cholecystokinin receptor type A (Cavia porcellus) (UniProt Q63931); test: Percent response in PI hydrolysis relative to maximal response elicited by CCK-8 in guinea pig at 10e-6 M
Starred links: 1 amine or outer side, 2 acyl side, 3 side chain; linkers in the order of their positions; H or OH if unused. Non-standard residues stand in square brackets, D forms with d. Residues, ends and D or L forms follow the SMILES beside them. Groups on a side chain read outwards from the residue. ξ: configuration not given here. *: point of attachment. ξW = NC(Cc1c[nH]c2ccccc12)C(=O)O; NH(2-Me-phenyl) = Cc1ccccc1N*; ξNMeF = CNC(Cc1ccccc1)C(=O)O; β3hP = O=C(O)C[C@@H]1CCCN1; ξF = NC(Cc1ccccc1)C(=O)O; Boc = CC(C)(C)OC(=O)*; CO = O=C([*:1])[*:2]
State the answer as a number, implicitly in %.

Entry under test: Cc1ccccc1NC(=O)NCCCC[C@H](NC(=O)C(Cc1c[nH]c2ccccc12)NC(=O)OC(C)(C)C)C(=O)N1CCC[C@H]1CC(=O)NC(Cc1ccccc1)C(N)=O (stereo partly drawn) (Boc-[ξW]K([CO-NH(2-Me-phenyl)])[β3hP][ξF]-NH2) . Its PI hydrolysis was 68

Entry under test: Cc1ccccc1NC(=O)NCCCC[C@H](NC(=O)C(Cc1c[nH]c2ccccc12)NC(=O)OC(C)(C)C)C(=O)NCC(=O)N(C)C(Cc1ccccc1)C(N)=O (stereo partly drawn) (Boc-[ξW]K([CO-NH(2-Me-phenyl)])G[ξNMeF]-NH2) . Its PI hydrolysis was 28

Entry under test: Cc1ccccc1NC(=O)NCCCC[C@H](NC(=O)C(Cc1c[nH]c2ccccc12)NC(=O)OC(C)(C)C)C(=O)NCCCC(=O)N(C)C(Cc1ccccc1)C(N)=O (stereo partly drawn) . Its PI hydrolysis was 67
